Listed below: DC50 values for each entry.
- System: GSPT1 (Homo sapiens, UniProt P15170+Q96SW2)
- Sequence (P15170 whole entry): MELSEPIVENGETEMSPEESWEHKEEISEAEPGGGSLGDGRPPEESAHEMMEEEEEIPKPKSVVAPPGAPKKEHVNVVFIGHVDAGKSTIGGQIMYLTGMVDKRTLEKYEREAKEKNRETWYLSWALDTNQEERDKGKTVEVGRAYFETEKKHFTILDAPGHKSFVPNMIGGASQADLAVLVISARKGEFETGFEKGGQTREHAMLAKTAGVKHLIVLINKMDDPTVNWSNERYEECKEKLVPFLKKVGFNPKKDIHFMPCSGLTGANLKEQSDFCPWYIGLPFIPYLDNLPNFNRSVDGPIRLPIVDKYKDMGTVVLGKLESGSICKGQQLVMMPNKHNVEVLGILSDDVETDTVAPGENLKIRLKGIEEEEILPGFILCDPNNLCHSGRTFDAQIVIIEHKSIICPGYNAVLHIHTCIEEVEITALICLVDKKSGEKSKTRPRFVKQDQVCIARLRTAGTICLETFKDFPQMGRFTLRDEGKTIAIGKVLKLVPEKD
- Sequence (Q96SW2 whole entry): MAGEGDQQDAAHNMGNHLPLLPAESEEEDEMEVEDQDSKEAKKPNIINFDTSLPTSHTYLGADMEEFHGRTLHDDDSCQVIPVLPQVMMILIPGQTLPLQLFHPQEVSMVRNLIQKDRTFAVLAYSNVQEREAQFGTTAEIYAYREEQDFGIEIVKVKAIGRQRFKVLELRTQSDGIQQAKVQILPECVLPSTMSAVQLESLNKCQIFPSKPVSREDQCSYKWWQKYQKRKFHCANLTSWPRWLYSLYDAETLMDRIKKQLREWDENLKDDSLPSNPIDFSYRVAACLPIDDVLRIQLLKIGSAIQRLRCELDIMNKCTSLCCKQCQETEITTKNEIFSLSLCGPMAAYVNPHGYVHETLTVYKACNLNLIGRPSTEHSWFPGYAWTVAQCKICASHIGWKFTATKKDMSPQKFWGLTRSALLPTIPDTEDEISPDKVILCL
- Sequence (Q16531 whole entry partner): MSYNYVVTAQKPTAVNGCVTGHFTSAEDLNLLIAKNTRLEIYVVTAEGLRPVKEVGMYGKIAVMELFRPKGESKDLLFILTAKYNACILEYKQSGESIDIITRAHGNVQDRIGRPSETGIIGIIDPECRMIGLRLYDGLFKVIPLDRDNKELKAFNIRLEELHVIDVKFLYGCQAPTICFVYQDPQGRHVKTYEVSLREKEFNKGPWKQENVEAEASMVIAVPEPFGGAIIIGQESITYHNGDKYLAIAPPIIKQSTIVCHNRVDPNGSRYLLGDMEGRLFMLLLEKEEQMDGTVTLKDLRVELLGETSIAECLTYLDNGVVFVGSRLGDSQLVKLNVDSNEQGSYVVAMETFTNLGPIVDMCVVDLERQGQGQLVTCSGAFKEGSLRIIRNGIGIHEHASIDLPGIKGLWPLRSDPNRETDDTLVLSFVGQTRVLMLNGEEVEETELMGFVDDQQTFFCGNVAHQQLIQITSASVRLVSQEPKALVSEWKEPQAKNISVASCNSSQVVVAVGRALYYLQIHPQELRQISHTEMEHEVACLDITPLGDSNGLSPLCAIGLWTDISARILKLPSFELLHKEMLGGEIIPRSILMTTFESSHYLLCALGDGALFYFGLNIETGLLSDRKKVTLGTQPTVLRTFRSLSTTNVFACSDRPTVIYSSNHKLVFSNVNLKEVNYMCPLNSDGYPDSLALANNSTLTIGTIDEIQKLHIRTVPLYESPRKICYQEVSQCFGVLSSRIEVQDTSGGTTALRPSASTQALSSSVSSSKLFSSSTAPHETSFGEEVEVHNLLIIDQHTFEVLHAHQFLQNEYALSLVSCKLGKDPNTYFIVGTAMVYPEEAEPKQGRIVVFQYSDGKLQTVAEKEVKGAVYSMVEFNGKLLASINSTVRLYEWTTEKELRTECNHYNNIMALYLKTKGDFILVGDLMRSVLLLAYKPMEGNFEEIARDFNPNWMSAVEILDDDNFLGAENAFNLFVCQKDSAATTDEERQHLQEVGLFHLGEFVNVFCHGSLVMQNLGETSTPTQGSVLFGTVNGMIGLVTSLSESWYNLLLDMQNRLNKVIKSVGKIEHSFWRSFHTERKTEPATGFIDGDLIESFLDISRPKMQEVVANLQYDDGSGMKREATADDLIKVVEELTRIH
- Test description: HiBiT degradation assay, GSPT1, Procedure A
- Format: cell-based
- Set-up: HiBit-GSPT1 KI HEK293(LgBit) Cells; host or cells: HEK293(LgBit) knock-in cells
- Condition: six hours incubation

{"columns": ["Compound", "System", "DC50"],
 "data": [
  ["O=C1CCC(N2Cc3cc(-c4c[nH]nc4C4CC4)ccc3C2=O)C(=O)N1 (stereo not shown)", "GSPT1 (Homo sapiens, UniProt P15170+Q96SW2)", "≥ 25 nM"],
  ["Cn1ncc(-c2ccc3c(c2)CN(C2CCC(=O)NC2=O)C3=O)c1-c1ccc(Cl)cc1Cl (stereo not shown)", "GSPT1 (Homo sapiens, UniProt P15170+Q96SW2)", "< 25 nM"],
  ["Cn1ncc(-c2ccc3c(c2)CN(C2CCC(=O)NC2=O)C3=O)c1-c1ccccc1C(F)(F)F (stereo not shown)", "GSPT1 (Homo sapiens, UniProt P15170+Q96SW2)", "≥ 25 nM"],
  ["Cn1cnc(-c2ccc3c(c2)CN(C2CCC(=O)NC2=O)C3=O)c1-c1ccc(C(=O)N2CCOCC2)cc1 (stereo not shown)", "GSPT1 (Homo sapiens, UniProt P15170+Q96SW2)", "≥ 25 nM"],
  ["Cn1cnc(-c2ccc3c(c2)CN(C2CCC(=O)NC2=O)C3=O)c1-c1ccsc1Cl (stereo not shown)", "GSPT1 (Homo sapiens, UniProt P15170+Q96SW2)", "≥ 25 nM"]
]}

What value of DC50 has been recorded for this entry: Cn1cnc(-c2ccc3c(c2)CN(C2CCC(=O)NC2=O)C3=O)c1-c1cccc(N)c1 (stereo not shown) ≥ 25 nM

What value of DC50 has been recorded for this entry: Cn1c(C2CCCCC2)nc(-c2ccc3c(c2)CN(C2CCC(=O)NC2=O)C3=O)c1-c1ccccc1 (stereo not shown) < 25 nM

###

- System: CK1α (Homo sapiens, UniProt P48729+Q96SW2)
- Construct: CSNK1A1-HiBit KI HEK293(LgBit) Cells; host or cells: HEK293(LgBit) knock-in cells
- Sequence (P48729 whole entry): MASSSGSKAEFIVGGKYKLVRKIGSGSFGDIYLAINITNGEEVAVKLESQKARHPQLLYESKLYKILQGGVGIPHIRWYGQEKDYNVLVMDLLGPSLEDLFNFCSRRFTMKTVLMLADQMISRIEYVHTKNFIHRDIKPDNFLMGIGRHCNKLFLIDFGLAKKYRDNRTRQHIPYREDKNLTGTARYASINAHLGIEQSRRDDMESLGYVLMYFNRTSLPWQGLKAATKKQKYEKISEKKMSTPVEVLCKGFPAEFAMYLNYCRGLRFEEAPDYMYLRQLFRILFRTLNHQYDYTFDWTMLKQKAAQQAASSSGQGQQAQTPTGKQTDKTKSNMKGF
- Sequence (Q96SW2 whole entry): as the sequence (Q96SW2 whole entry) above
- Sequence (Q16531 whole entry partner): as the sequence (Q16531 whole entry partner) above
- Test description: HiBiT degradation assay, CK1α, Procedure A
- Type: cell-based
- Condition: six hours
Property label: DC50

# count of solved cases: 3
{"columns": ["Compound", "DC50"],
 "data": [
  ["Cn1cc(-c2ccc3c(c2)CN(C2CCC(=O)NC2=O)C3=O)nc1-c1ccccc1C(F)(F)F (stereo not shown)", "< 25 nM"],
  ["Cn1cnc(-c2ccc3c(c2)CN(C2CCC(=O)NC2=O)C3=O)c1-c1ccc2ncnn2c1 (stereo not shown)", "≥ 25 nM"],
  ["Cn1cnc(-c2ccc3c(c2)CN(C2CCC(=O)NC2=O)C3=O)c1-c1ccccc1N (stereo not shown)", "< 25 nM"]
]}

Proceeding to the next compound to report its DC50.
What value of DC50 has been recorded for this entry: Cc1ccc(-c2nc(-c3ccc4c(c3)CN(C3CCC(=O)NC3=O)C4=O)cn2C)c(F)c1 (stereo not shown) < 25 nM

###

Listed below: DC50 values for each entry.
- System: CK1α (Homo sapiens, UniProt P48729+Q96SW2)
- Construct: CSNK1A1-HiBit KI HEK293(LgBit) Cells; host or cells: HEK293(LgBit) knock-in cells
- Test description: HiBiT degradation assay, CK1α, Procedure A
- Assay type: cell-based
- Condition: six hours

# count of solved cases: 4
{"columns": ["Compound", "DC50"],
 "data": [
  ["COc1cncc(-c2c(-c3ccc4c(c3)CN(C3CCC(=O)NC3=O)C4=O)cnn2C)c1 (stereo not drawn)", "≥ 25 nM"],
  ["CC(C)c1nc(-c2ccc3c(c2)CN(C2CCC(=O)NC2=O)C3=O)c(-c2ccccc2)n1C (stereo not drawn)", "< 25 nM"],
  ["Cn1cc(-c2ccc3c(c2)CN(C2CCC(=O)NC2=O)C3=O)nc1-c1cccc(C(F)F)c1 (stereo not drawn)", "< 25 nM"],
  ["O=C1CCC(N2Cc3cc(-c4cc(-c5ccccc5)n(C5CC5)n4)ccc3C2=O)C(=O)N1 (stereo not drawn)", "< 25 nM"]
]}

Proceeding to the next compound to report its DC50.
What value of DC50 has been recorded for this entry: Cn1cc(-c2ccc3c(c2)CN(C2CCC(=O)NC2=O)C3=O)nc1-c1ccc(Cl)cc1 (stereo not drawn) < 25 nM

###

Listed below: DC50 values for each entry.
- System: GSPT1 (Homo sapiens, UniProt P15170+Q96SW2)
- Test description: HiBiT degradation assay, GSPT1, Procedure A
- Assay type: cell-based
- Design: HiBit-GSPT1 KI HEK293(LgBit) Cells; host or cells: HEK293(LgBit) knock-in cells
- Condition: six hours
- Description: Compounds were spotted onto Cornin 384-Well, Cell Culture-Treated, Flat-Bottom, Low Flange Microplate (Fisher Scientific, Catalog #07-201-013) using a Tecan D300e digital dispenser. […] Cells were dissociated from tissue 182 cm^2 Tissue Culture Flask (CellTreat Catalog #229351) by washing the cells with PBS (Fisher Scientific Catalog #BP3994) followed by dissociation with Trypsin-EDTA (0.25%) (Thermo Scientific Catalog #25200056). […] Cell density was determined using a Denovix CellDrop BF cell counter. […]

What value of DC50 has been recorded for this entry: Cn1ncc(-c2ccc3c(c2)CN(C2CCC(=O)NC2=O)C3=O)c1-c1cnn(-c2ccccc2)c1 (stereo not drawn) [Example 395] < 25 nM

What value of DC50 has been recorded for this entry: CN1CC=C(c2c(-c3ccc4c(c3)CN(C3CCC(=O)NC3=O)C4=O)cnn2C)CC1 (stereo not drawn) [Example 591] < 25 nM

What value of DC50 has been recorded for this entry: COc1ccncc1-c1c(-c2ccc3c(c2)CN(C2CCC(=O)NC2=O)C3=O)ncn1C (stereo not drawn) [Example 524] ≥ 25 nM

###

Listed below: DC50 values for each entry.
- System: CK1α (Homo sapiens, UniProt P48729+Q96SW2)
- Construct: CSNK1A1-HiBit KI HEK293(LgBit) Cells; host or cells: HEK293(LgBit) knock-in cells
- Test description: HiBiT degradation assay, CK1α, Procedure A
- Format: cell-based
- Condition: six hours incubation

# count of solved cases: 5
{"columns": ["Compound", "Experimental value"],
 "data": [
  ["Cn1ncc(-c2ccc3c(c2)CN(C2CCC(=O)NC2=O)C3=O)c1-c1ccc(-c2ccccc2)cc1 (stereo not shown) [Example 144]", "< 25 nM"],
  ["Cn1cnc(-c2ccc3c(c2)CN(C2CCC(=O)NC2=O)C3=O)c1-c1ccc(F)c(F)c1 (stereo not shown) [Example 177]", "< 25 nM"],
  ["Cn1cnc(-c2ccc3c(c2)CN(C2CCC(=O)NC2=O)C3=O)c1-c1ccc(F)c(C(F)(F)F)c1 (stereo not shown) [Example 293]", "≥ 25 nM"],
  ["Cc1ccc(-c2c(-c3ccc4c(c3)CN(C3CCC(=O)NC3=O)C4=O)cnn2C)c(C)c1 (stereo not shown) [Example 83]", "< 25 nM"],
  ["[2H]C([2H])([2H])n1ncc(-c2ccc3c(c2)CN(C2CCC(=O)NC2=O)C3=O)c1-c1ccccc1 (stereo not shown) [Example 207]", "< 25 nM"]
]}

What value of DC50 has been recorded for this entry: Cn1cnc(-c2ccc3c(c2)CN(C2CCC(=O)NC2=O)C3=O)c1-c1ccc(NC(=O)c2ccccc2)cc1 (stereo not shown) [Example 356] ≥ 25 nM

What value of DC50 has been recorded for this entry: Cc1cc(-c2c(-c3ccc4c(c3)CN(C3CCC(=O)NC3=O)C4=O)ncn2C)ccc1F (stereo not shown) [Example 238] < 25 nM

What value of DC50 has been recorded for this entry: Cn1cnc(-c2ccc3c(c2)CN(C2CCC(=O)NC2=O)C3=O)c1-c1cccc(N2CCCC2)c1 (stereo not shown) [Example 287] < 25 nM

What value of DC50 has been recorded for this entry: Cn1cnc(-c2ccc3c(c2)CN(C2CCC(=O)NC2=O)C3=O)c1-c1cccc(N2CCOCC2)c1 (stereo not shown) [Example 297] < 25 nM

What value of DC50 has been recorded for this entry: COc1ncccc1-c1c(-c2ccc3c(c2)CN(C2CCC(=O)NC2=O)C3=O)ncn1C (stereo not shown) [Example 327] < 25 nM

###

- System: GSPT1 (Homo sapiens, UniProt P15170+Q96SW2)
- Test description: HiBiT degradation assay, GSPT1, Procedure A
- Assay type: cell-based
- Set-up: HiBit-GSPT1 KI HEK293(LgBit) Cells; host or cells: HEK293(LgBit) knock-in cells
- Condition: six hours incubation
Listed below: DC50 values for each entry.

{"columns": ["Compound", "DC50"],
 "data": [
  ["O=C1CCC(N2Cc3cc(-c4ccnn4-c4ccccc4)ccc3C2=O)C(=O)N1 (stereo not drawn)", "≥ 25 nM"]
]}

API: value(readout=DC50, system=GSPT1 (Homo sapiens, UniProt P15170+Q96SW2)) for record Cn1ncc(-c2ccc3c(c2)CN(C2CCC(=O)NC2=O)C3=O)c1-c1ccccc1-c1ccccc1 (stereo not drawn) < 25 nM

API: value(readout=DC50, system=GSPT1 (Homo sapiens, UniProt P15170+Q96SW2)) for record Cn1ncc(-c2ccc3c(c2)CN(C2CCC(=O)NC2=O)C3=O)c1-c1cccc(CN2CCCC2)c1 (stereo not drawn) ≥ 25 nM

API: value(readout=DC50, system=GSPT1 (Homo sapiens, UniProt P15170+Q96SW2)) for record Cc1cc(C#N)ccc1-c1c(-c2ccc3c(c2)CN(C2CCC(=O)NC2=O)C3=O)ncn1C (stereo not drawn) ≥ 25 nM

API: value(readout=DC50, system=GSPT1 (Homo sapiens, UniProt P15170+Q96SW2)) for record Cn1cnc(-c2ccn3c(=O)n(C4CCC(=O)NC4=O)nc3c2)c1-c1ccccc1 (stereo not drawn) ≥ 25 nM

API: value(readout=DC50, system=GSPT1 (Homo sapiens, UniProt P15170+Q96SW2)) for record CC(C)Cn1cnc(-c2ccc3c(c2)CN(C2CCC(=O)NC2=O)C3=O)c1-c1ccccc1 (stereo not drawn) < 25 nM
